Reference source: patent US20200339684A1

target entity: T1, recombinant human CD83 extracellular domain with His tag (hCD83ECD-His) (human, UniProt Q01151 20-144)
T1 construct: extracellular domain; Expressed in CHO cells and purified by IMAC; also called recombinant human CD83ECD-His; recombinant CD83; not shown: His tag
T1 sequence (looked up): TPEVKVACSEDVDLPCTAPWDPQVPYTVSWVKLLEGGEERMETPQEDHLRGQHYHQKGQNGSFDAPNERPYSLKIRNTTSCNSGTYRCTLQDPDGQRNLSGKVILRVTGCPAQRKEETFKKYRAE
protocol details: BiaCore SPR, Fab over immobilised hCD83ECD, 1:1 model with mass transfer
Each entry below carries its reported log10(Kd).
metric name: log10(Kd) (log10 of the value in nM)

- 3C12.E Fab fragment (Fab, V domains shown) VH: EVQLQESGGGVVQPGRSLRLSCAASGFTFSSYAMHWVRQAPGKGLEWVAVISYDGSNKYYADSVKGRFTISRDNSKNTLYLQMNSLRAEDTAMYYCARHYYYGMDVWGQGTTLTVSS VL: EIVLTQSPSSLSASVGDRVTITCRASQGISNYLAWYQQKPGKVPKLLIYAASTLQSGVPSRFSGSGSGTHFTLTISSLQPEDVATYYCQKCNSAPYTFGQGTKVELKR: 1.62
- 3C12.WT Fab fragment (Fab, V domains shown, also called 3C12 Fab; wildtype 3C12 Fab) VH: EVQLQESGGGVVQPGRSLRLSCAASGFTFSSYAMHWVRQAPGKGLEWVAVISYDGSNKYYADSVKGRFTISRDNSKNTLYLQMNSLRAEDTAMYYCARHYYYGMDVWGQGTTLTVSS VL: EIVMTQSPSLLSASLGDRVTITCRASQGIKNYFAWYQQRPGKAPKLLIYATSNLQSGVPSRFSGSGSGTEFTLTISSLQPEDFATYYCQQLGAYPLTFGGGTKLELKR: 2.11
- 3C12.C Fab fragment (Fab, V domains shown) VH: EVQLQESGGGVVQPGRSLRLSCAASGFTFSSYAMHWVRQAPGKGLEWVAVISYDGSNKYYADSVKGRFTISRDNSKNTLYLQMNSLRAEDTAMYYCARHYYYGMDVWGQGTTLTVSS VL: EIVLTQSPSSLSASVGDRVTITCRASQGIRNYLAWYQQKPGKVPKLLIYATSTLQSGVPSRFSGSRSGTEFTLTISSLHPEDFATYYCQQVDRFPYTFGQGTKVELKR: 0.79
- 3C12.D Fab fragment (Fab, V domains shown) VH: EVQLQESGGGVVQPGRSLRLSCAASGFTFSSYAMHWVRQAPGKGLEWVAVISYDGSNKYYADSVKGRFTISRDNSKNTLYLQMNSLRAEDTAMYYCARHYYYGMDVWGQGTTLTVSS VL: EIQMTQSPSSLSASVGDRVTITCRASQGISSWLAWYQQKPGKAPKLLIYAASSLQSGVPSRFSGSGSGTEFTLTISSLQPDDFATYYCQKLSSYPYTFGGGTKVELKR: 1.40
- 3C12.B Fab fragment (Fab, V domains shown) VH: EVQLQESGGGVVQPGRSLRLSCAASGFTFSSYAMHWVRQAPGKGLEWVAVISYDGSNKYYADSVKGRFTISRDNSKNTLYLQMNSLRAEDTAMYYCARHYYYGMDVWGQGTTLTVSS VL: EVVMTQSPSFLSASIGDRVSITCRTSQGISNHLAWYQQKPGKAPKLLIYAASSLQSGVPSRFSGSGSGTDFTLTISSLQPEDIATYYCQQVNSYPYTFGQGTRLELKR: 1.63
